B1: Far upstream element-binding protein 2, residues 142 to 214; numbered along this chain, Q92945 (parent)
chain: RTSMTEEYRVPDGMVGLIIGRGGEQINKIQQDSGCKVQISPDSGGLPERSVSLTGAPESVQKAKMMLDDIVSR

# Variants of: B1
# method notes: abundance fitness (aPCA) (normalised: wild type 0, dead -1); higher = more abundant; growth selection in yeast, the domain comes from the species named
# test settings: Homo sapiens
measured property: abundance fitness
// no unit, no text: just the number

The examples below pair each entry with its known result.
I70C ... -0.141
I29A ... -0.811
R49S ... -0.026
R49N ... -0.104
L46D ... -0.045
V51H ... -1.3

Exercise: What abundance fitness value was documented for this variant, D69S ?
Key: -0.122

Exercise: What abundance fitness value was documented for this variant, G55P ?
Key: -0.937

Exercise: What abundance fitness value was documented for this variant, N27F ?
Key: -0.081

Exercise: What abundance fitness value was documented for this variant, A56D ?
Key: -0.025

Exercise: What abundance fitness value was documented for this variant, V37Y ?
Key: -0.974

Exercise: What abundance fitness value was documented for this variant, S50V ?
Key: -0.002

FYI, the data here is from the Human Domainome abundance scans (Beltran et al. 2025).
